target: T1, serum purified human Complement Factor D (human, UniProt P00746 26-253); test: SPR Biacore, antibody on protein A chip, single cycle kinetics, 37 C
T1 construct: Serum purified protein flowed over the captured antibodies; also called CFD; human CFD
T1 sequence (P00746 26-253): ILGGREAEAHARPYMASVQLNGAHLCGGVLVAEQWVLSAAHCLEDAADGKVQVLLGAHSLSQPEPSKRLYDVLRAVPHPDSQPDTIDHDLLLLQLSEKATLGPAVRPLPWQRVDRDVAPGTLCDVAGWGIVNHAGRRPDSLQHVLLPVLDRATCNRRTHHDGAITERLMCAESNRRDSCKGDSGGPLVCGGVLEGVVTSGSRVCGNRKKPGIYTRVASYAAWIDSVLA
Property name: koff (s⁻¹)
I only need the number, in s⁻¹, no unit after it.

Reported koff for 31S34I54I59D84S / 54G101V (antibody, V domains shown, KCD119 TAF variant; full antibody captured on protein A; also called 31S34I54I59D845 / 54G101V; 3I534I54I59D84S / 54G101V) VH: EVQLVESGGGLVQPGGSLRLSCAASGYTFTSYYINWVRQAPGKGLEWIGDINPITGDTDYNADFKRRFTFSLDTSKSTAYLQMSSLRAEDTAVYYCTREGPSFAYWGQGTLVTVSS VL: DIQLTQSPSSLSASVGDRVTITCRSSQTIVHSNGDTYLEWYQQKPGKAPNLLIGKVSNRFSGVPSRFSGSGSGTDFTLTISSLQPEDFATYYCFQGSHVPVTFGQGTKVEIK was 7.36e-05

Reported koff for 31S34I54I59D84S / 54R101V (antibody, V domains shown, KCD119 TAF variant; also called 3I534I54I59D84S / 54R101V) VH: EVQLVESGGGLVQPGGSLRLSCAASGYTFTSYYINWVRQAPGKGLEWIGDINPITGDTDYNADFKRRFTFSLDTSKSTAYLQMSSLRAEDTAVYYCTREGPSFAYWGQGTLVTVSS VL: DIQLTQSPSSLSASVGDRVTITCRSSQTIVHSNGDTYLEWYQQKPGKAPNLLIRKVSNRFSGVPSRFSGSGSGTDFTLTISSLQPEDFATYYCFQGSHVPVTFGQGTKVEIKR was 0.000137

Reported koff for 34I54I59D84S / 54G101V (antibody, V domains shown, also called 34I54I59D845 / 54G101V) VH: EVQLVESGGGLVQPGGSLRLSCAASGYTFTDYYINWVRQAPGKGLEWIGDINPITGDTDYNADFKRRFTFSLDTSKSTAYLQMSSLRAEDTAVYYCTREGPSFAYWGQGTLVTVSS VL: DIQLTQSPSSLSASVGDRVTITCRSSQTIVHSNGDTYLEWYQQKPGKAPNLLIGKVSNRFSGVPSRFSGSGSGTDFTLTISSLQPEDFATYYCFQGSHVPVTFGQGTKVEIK was 0.000112

Reported koff for 34I54I59D84S / 54R101V (antibody, human IgG1, V domains shown, Human IgG1 kappa; also called OG1965) VH: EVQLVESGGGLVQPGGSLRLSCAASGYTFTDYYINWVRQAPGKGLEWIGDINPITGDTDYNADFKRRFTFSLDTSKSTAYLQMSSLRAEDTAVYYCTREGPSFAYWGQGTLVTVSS VL: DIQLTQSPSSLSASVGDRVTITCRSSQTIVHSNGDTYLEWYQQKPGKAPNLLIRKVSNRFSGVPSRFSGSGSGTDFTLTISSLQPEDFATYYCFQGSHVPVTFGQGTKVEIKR was 0.000202

Reported koff for KCD119 TAF / KCD119 TAF (antibody, V domains shown, Humanized KCD119; tested as full antibody captured on protein A; also called D19 TAF) VH: EVQLVESGGGLVQPGGSLRLSCAASGYTFTDYYMNWVRQAPGKGLEWIGDINPNTGDTSYNADFKRRFTFSLDTSKSTAYLQMNSLRAEDTAVYYCTREGPSFAYWGQGTLVTVSS VL: DIQLTQSPSSLSASVGDRVTITCRSSQTIVHSNGDTYLEWYQQKPGKAPNLLIYKVSNRFSGVPSRFSGSGSGTDFTLTISSLQPEDFATYYCFQGSHVPPTFGQGTKVEIK was 0.00628

The reported numbers originate from patent US20180334496A1.
